Where these numbers come from: the supplement of paper PMC6897291

# System: RIVA
# experiment.notes: growth inhibition by drug alone (1 - RLU/untreated control) (fraction); higher = stronger inhibition
# measurement.parameters: 100 nM; time (day): 6; 177Lu-lilotomab satetraxetan 0 ug/ml
Structures can show the parent of a compound that is named as a salt.
Each entry below carries its recorded growth inhibition by drug alone.
# print the numeric value only

Some solved entries appear below for comparison.
[
  {
    "compound": "CCC(CC)CC1(C(=O)Nc2ccccc2SC(=O)C(C)C)CCCCC1",
    "readout": "growth inhibition by drug alone",
    "reported.result": -0.178
  },
  {
    "compound": "C[C@]12CC[C@@H]3c4ccc(O)cc4C[C@@H](CCCCCCCCC[S+]([O-])CCCC(F)(F)C(F)(F)F)[C@H]3[C@@H]1CC[C@@H]2O (stereo partly drawn)",
    "readout": "growth inhibition by drug alone",
    "reported.result": -0.154
  },
  {
    "compound": "COc1cc2c(NC3CCN(C)CC3)nc(N3CCCN(C)CC3)nc2cc1OCCCN(C)C",
    "readout": "growth inhibition by drug alone",
    "reported.result": -0.706
  },
  {
    "compound": "Cc1cnc(-c2cnc(NCCNc3ccc(C#N)cn3)nc2-c2ccc(Cl)cc2Cl)[nH]1",
    "readout": "growth inhibition by drug alone",
    "reported.result": -0.16
  }
]

Ask: State the recorded growth inhibition by drug alone for this entry: "CO[C@@H](C(=O)N1Cc2[nH]nc(NC(=O)c3ccc(N4CCN(C)CC4)cc3)c2C1)c1ccccc1"
Reply: 0.29

Ask: Need growth inhibition by drug alone, item COC(=O)C1=C(C)NC(C)=C(C(=O)OCCCN2CCC(c3ccccc3)(c3ccccc3)CC2)[C@H]1c1cccc([N+](=O)[O-])c1 [S-(+)-Niguldipine hydrochloride]
Reply: -0.329

Ask: Reported growth inhibition by drug alone for "CC(C)(C)c1ccc(S(=O)(=O)/C=C/C#N)cc1" : what is it?
Reply: -0.195

Ask: What value of measured growth inhibition by drug alone is listed for "CCCCCOC(=O)Nc1nc(=O)n([C@@H]2O[C@H](C)[C@@H](O)[C@H]2O)cc1F" ?
Reply: -0.436

###

# Tested on: RIVA
# experiment.notes: growth inhibition by drug alone (1 - RLU/untreated control) (fraction); higher = stronger inhibition
# measurement.parameters: 10 nM; time (day): 5; 177Lu-lilotomab satetraxetan 0 ug/ml
Recorded growth inhibition by drug alone, one value per entry.

Example results:
[
  {
    "molecule": "CNC(=O)c1ccc(C)c(-n2c(C)cc(OCc3ccc(F)cc3F)c(Br)c2=O)c1",
    "readout": "growth inhibition by drug alone",
    "reported.result": -0.219
  },
  {
    "molecule": "COc1cc([C@@H]2c3cc4c(cc3[C@@H](O[C@@H]3O[C@@H]5CO[C@@H](C)O[C@H]5[C@H](O)[C@H]3O)[C@H]3COC(=O)[C@H]23)OCO4)cc(OC)c1O [Etoposide (VP-16)]",
    "readout": "growth inhibition by drug alone",
    "reported.result": -0.302
  },
  {
    "molecule": "COc1cc2nccc(Oc3ccc(NC(=O)NC4CC4)c(Cl)c3)c2cc1C(N)=O",
    "readout": "growth inhibition by drug alone",
    "reported.result": -0.3
  },
  {
    "molecule": "CN(C)CCCCSC(=N)N",
    "readout": "growth inhibition by drug alone",
    "reported.result": -0.106
  },
  {
    "molecule": "COc1cc(OC2CCN(C)CC2)ccc1Nc1ncc2c(n1)n(C1CCCC1)c(=O)n2C",
    "readout": "growth inhibition by drug alone",
    "reported.result": -0.358
  }
]

Ask: For CC(NC(=O)c1ccccc1/N=C/c1c(O)ccc2ccccc12)c1ccccc1 (stereo not drawn) , what is its reported growth inhibition by drug alone?
Reply: -0.0621

Ask: Look at this molecule and give its reported growth inhibition by drug alone. "C[C@]12CC[C@@H]3c4ccc(O)cc4CC[C@H]3[C@@H]1CCC2=O"
Reply: -0.112

Ask: Given CNC(=O)c1ccc(N2C(=S)N(c3ccc(C#N)c(C(F)(F)F)c3)C(=O)C2(C)C)cc1F [MDV3100 (Enzalutamide)] , state its recorded growth inhibition by drug alone.
Reply: 0.0315

Ask: What measured growth inhibition by drug alone goes with "CNC(=O)c1ccccc1Sc1ccc2c(/C=C/c3ccccn3)n[nH]c2c1" ?
Reply: -0.216
